Assign Ebola Zaire SI (CC50/EC50) to each entry below.
Give the figure by itself; no unit, no explanation.

Entry CC12CC3CC(C(=O)N4CCC(N)C(C)(C)C4)(C1)CC(c1ccccc1)(C3)C2 (racemic) , tested on Ebola Zaire, has a reported Ebola Zaire SI (CC50/EC50) of 29

Entry CC12CC3CC(CN4CCC(N)CC4)(C1)CC(c1ccccc1)(C3)C2 (stereo not shown) , tested on Ebola Zaire, has a reported Ebola Zaire SI (CC50/EC50) of 16

Entry C[C@H]1C[C@@H](NC(=O)C23CC4C[C@@](C)(C2)C[C@](c2ccccc2)(C4)C3)CCN1 , tested on Ebola Zaire, has a reported Ebola Zaire SI (CC50/EC50) of 54

Entry C[C@@]12CC3CC(C(=O)NC4CCNCC4)(CC(c4ccccc4)(C3)C1)C2 , tested on Ebola Zaire, has a reported Ebola Zaire SI (CC50/EC50) of 51

* * *

Assign CC50 to each entry below.
# ASSAY EXPLANATION: in vitro
# CONDITION SET: African green monkey, Cytotox CC50
Output spec: scalar in µM, unitless text.

Just so you know, measured CC50 for CC12CC3CC(CN[C@H]4CC[C@H](N)CC4)(C1)CC(c1ccccc1)(C3)C2 (stereo partly shown) came out at 1.62

Just so you know, measured CC50 for C[C@]12CC3CC(C(=O)N[C@H]4CC[C@@H](N)CC4)(C1)C[C@@](c1ccccc1)(C3)C2.Cl came out at 19.1

Just so you know, measured CC50 for CC1(C)CN(C(=O)C23CC4C[C@@](C)(C2)C[C@](c2ccccc2)(C4)C3)CC[C@H]1N came out at 13.3

Just so you know, measured CC50 for CC1(N)CCN(C(=O)C23CC4CC(C)(C2)CC(c2ccccc2)(C4)C3)CC1 (racemic) came out at 10.9

* * *

# ASSAY EXPLANATION: in vitro
# CONDITION SET: African green monkey, Cytotox CC50
PARAMETER: log10 of CC50 (log10 of the value in µM)
Scale type: logarithmic (base 10). Underlying CC50 unit: µM.

Just so you know, measured log10 of CC50 for CCC12CC3CC(C(=O)N[C@H]4CC[C@H](CN)CC4)(C1)CC(c1ccccc1)(C3)C2 (mixture of isomers) came out at 0.57

Just so you know, measured log10 of CC50 for CC12CC3CC(C(=O)N4CC5(CNC5)C4)(C1)CC(c1ccccc1)(C3)C2 (racemic) came out at 1.63

Just so you know, measured log10 of CC50 for C[C@]12CC3CC(C(=O)N[C@H]4CCNC[C@@H]4F)(C1)C[C@@](c1ccccc1)(C3)C2 came out at 1.09

Just so you know, measured log10 of CC50 for CCC12CC3CC(C(=O)N[C@@H]4CCNC[C@H]4O)(C1)CC(c1ccccc1)(C3)C2 (mixture of isomers) came out at 1.07

Just so you know, measured log10 of CC50 for CC1(C)CN(C(=O)C23CC4C[C@@](C)(C2)C[C@](c2ccccc2)(C4)C3)CCC1N (stereo partly shown) came out at 1.09

Just so you know, measured log10 of CC50 for C[C@@]12CC3CC(C(=O)NC4CCNCC4)(C1)C[C@](c1ccccc1)(C3)C2 came out at 1.21

Just so you know, measured log10 of CC50 for C[C@]12CC3CC(C(=O)N[C@@H]4CCNC[C@H]4F)(C1)C[C@@](c1ccccc1)(C3)C2 came out at 1.08

Just so you know, measured log10 of CC50 for C[C@@]12CC3CC(C(=O)NC4CCNCC4)(CC(c4ccccc4)(C3)C1)C2 came out at 1.09

Just so you know, measured log10 of CC50 for CC12CC3CC(C(=O)N4CCCC(N)CC4)(C1)CC(c1ccccc1)(C3)C2 (racemic) came out at 1.11

Just so you know, measured log10 of CC50 for CC12CC3CC(C(=O)N4CCC5(CC4)CNC5)(C1)CC(c1ccccc1)(C3)C2 (racemic) came out at 1.14

Just so you know, measured log10 of CC50 for CC1CN(C(=O)C23CC4CC(C)(C2)CC(c2ccccc2)(C4)C3)CCC1N (racemic) came out at 1.12

Just so you know, measured log10 of CC50 for CC12CC3CC(C(=O)N4CCC(N)CC4)(C1)CC(c1ccccc1)(C3)C2 (racemic) came out at 1.14

Just so you know, measured log10 of CC50 for CC12CC3CC(C(=O)NC4CCNCC4)(C1)CC(c1ccccc1)(C3)C2 (racemic) came out at 1.21

Just so you know, measured log10 of CC50 for C[C@@]12CC3CC(C(=O)N[C@H]4CN5CCC4CC5)(C1)C[C@](c1ccccc1)(C3)C2 came out at 1.00

Just so you know, measured log10 of CC50 for CC12CC3CC(C(=O)N[C@H]4CC[C@H](CN)CC4)(C1)CC(c1ccccc1)(C3)C2 (mixture of isomers) came out at 0.90

Just so you know, measured log10 of CC50 for C[C@@]12CC3CC(C(=O)N[C@@H]4CCNC[C@H]4F)(C1)C[C@](c1ccccc1)(C3)C2 came out at 1.06

* * *

# CONDITION SET: microsomes, 1 h
Mark 1.0 only when Liver Microsome Stability % Remaining after 60 Minutes, Monkey stays strictly below 50%. Values equal to the cut-off are 0.0.

Query: Answer whether the molecule C[C@]12CC3CC(C(=O)N[C@H]4CC[C@@H](N)CC4)(C1)C[C@@](c1ccccc1)(C3)C2.Cl has Liver Microsome Stability % Remaining after 60 Minutes, Monkey strictly less than 50%
Reply: 0.0

Query: Answer whether the molecule C[C@]12CC3CC(C(=O)N4CCC(N)CC4)(C1)C[C@@](c1ccccc1)(C3)C2 has Liver Microsome Stability % Remaining after 60 Minutes, Monkey strictly less than 50%
Reply: 0.0

Query: Answer whether the molecule CC1(C)CN(C(=O)C23CC4C[C@@](C)(C2)C[C@](c2ccccc2)(C4)C3)CC[C@@H]1N has Liver Microsome Stability % Remaining after 60 Minutes, Monkey strictly less than 50%
Reply: 1.0

Query: Answer whether the molecule C[C@]12CC3CC(C(=O)N[C@H]4CC[C@H](CN)CC4)(C1)C[C@@](c1ccccc1)(C3)C2 has Liver Microsome Stability % Remaining after 60 Minutes, Monkey strictly less than 50%
Reply: 0.0

Query: Answer whether the molecule C[C@@]12CC3CC(C(=O)NC4CCNCC4)(CC(c4ccccc4)(C3)C1)C2 has Liver Microsome Stability % Remaining after 60 Minutes, Monkey strictly less than 50%
Reply: 0.0

Query: Answer whether the molecule CC12CC3CC(C(=O)N4CCC(N)C(C)(C)C4)(C1)CC(c1ccccc1)(C3)C2 (racemic) has Liver Microsome Stability % Remaining after 60 Minutes, Monkey strictly less than 50%
Reply: 1.0

Query: Answer whether the molecule CC12CC3CC(C(=O)N4CCC5(CC4)CNC5)(C1)CC(c1ccccc1)(C3)C2 (racemic) has Liver Microsome Stability % Remaining after 60 Minutes, Monkey strictly less than 50%
Reply: 1.0

* * *

# ASSAY EXPLANATION: in vivo
# CONDITION SET: male, CD-1, mouse, po, 10 mg/kg
PARAMETER: Cmax (ng/mL)
Output spec: scalar in ng/mL, unitless text.

Just so you know, measured Cmax for CC12CC3CC(C(=O)N[C@H]4CC[C@@H](N)CC4)(C1)CC(c1ccccc1)(C3)C2.Cl (mixture of isomers) came out at 239

* * *

Assign pEC50 to each entry below.
# Test system: MARV (full-length glycoprotein, VSV pseudotype)
# ASSAY EXPLANATION: microbe, parasite or virus in culture
# Format: cell-based, Marburg marburgvirus
# CONDITION SET: Vesicular stomatitis virus, Vero, 24 h, read-out: EC50 Pseudotype Assays MARV
Remember, pEC50 is on a log scale: it is -log10 of the molar concentration.

Just so you know, measured pEC50 for CCC12CC3CC(C(=O)N[C@H]4CCNC[C@@H]4F)(C1)CC(c1ccccc1)(C3)C2 (mixture of isomers) came out at 5.46

Just so you know, measured pEC50 for CC12CC3CC(CN4CCC(N)CC4)(C1)CC(c1ccccc1)(C3)C2 (stereo not drawn) came out at 6.02

Just so you know, measured pEC50 for CCC12CC3CC(C(=O)N[C@@H]4CCNC[C@H]4O)(C1)CC(c1ccccc1)(C3)C2 (mixture of isomers) came out at 5.07

Just so you know, measured pEC50 for C[C@@]12CC3CC(C(=O)N4CCC(N)CC4)(C1)C[C@](c1ccccc1)(C3)C2 came out at 5.09

Just so you know, measured pEC50 for CC[C@]12CC3CC(C(=O)N[C@H]4CC[C@H](N)CC4)(C1)C[C@@](c1ccccc1)(C3)C2 came out at 5.52

Just so you know, measured pEC50 for C[C@@]12CC3CC(C(=O)N[C@H]4CN5CCC4CC5)(C1)C[C@](c1ccccc1)(C3)C2 came out at 7.00

Just so you know, measured pEC50 for CCC12CC3CC(C(=O)NC4CCNCC4(C)C)(C1)CC(c1ccccc1)(C3)C2 (racemic) came out at 5.80

Just so you know, measured pEC50 for CC12CC3CC(C(=O)N[C@H]4CC[C@@H](N)CC4)(C1)CC(c1ccccc1)(C3)C2.Cl (mixture of isomers) came out at 5.51

Just so you know, measured pEC50 for CCC12CC3CC(C(=O)N[C@H]4CC[C@H](CN)CC4)(C1)CC(c1ccccc1)(C3)C2 (mixture of isomers) came out at 5.55

Just so you know, measured pEC50 for C[C@@]12CC3CC(C(=O)N[C@H]4CC[C@H](CN)CC4)(C1)C[C@](c1ccccc1)(C3)C2 came out at 5.50
